B1: IMPA1 (parent)
chain: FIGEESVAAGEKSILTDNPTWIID

Variants of: B1
protocol-details: protein stability index of a GFP-peptide fusion (GPS, HEK-293T) (PSI 1-6); higher = more stable;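 note: lentivirally expressed fusions sorted by FACS into six bins by GFP to DsRed ratio, PSI derived from sequencing read proportions per bin multiplied by bin number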
setup-conditions: c terminus: a fixed tail appended
result-type: protein stability index
Output: the number by itself.

"W21H" yielded protein stability index of 4.71

Value of measured protein stability index for the entry "E5C" : 2.7

The measured protein stability index associated with "A9Q" reads 2.24

Kindly note the recorded protein stability index for "G10P" , which is 2.15

Documented protein stability index of "S6M" : 2.07
